Test system: HOP-62 NSCLC
Experiment: NCI tumour cell line growth inhibition, 48 h; in the data active means GI50 below about 0.43 µM; inactive means the rest
In this exercise, the only acceptable responses are active, inactive

Some solved entries appear below for comparison.
>  <compound>
COc1ccc2c(c1)C(=O)c1c-2c(N2CCN(C(=O)CN(C)C)CC2)nc2ccccc12

>  <assigned_class>
inactive

$$$$
>  <compound>
CCC[C@H](Nc1nc(-c2ccc(NC(=O)NCC)c(OC)c2)ncc1C)c1cccnc1

>  <assigned_class>
active

$$$$

--- query ---
### Prompt Could you please tell me the result logged for O=C1CN2CCC1C/C2=C\c1ccnc2c(Cl)cccc12 (stereo not drawn) in this assay?
### Response inactive

====

System: SN12C renal
Test: NCI tumour cell line growth inhibition, 48 h
A collection of compounds and their measured TGI

For orientation, consider the following solved cases.
>  <compound>
O=C(/C=C(\O)C(=O)O)/C=C(\O)c1ccccc1Cl

>  <experimental_value>
> 100 µM

$$$$
>  <compound>
CC1=CC[C@@]2(C)[C@@H]([C@@H]1C)[C@H]1CC[C@@H]3[C@@]4(C)CC[C@H](O)C(C)(C)[C@@H]4CC[C@@]3(C)[C@]1(C)C[C@@H]2O

>  <experimental_value>
> 100 µM

$$$$
>  <compound>
CC(=O)CCC(=O)CC(O)(C(F)(F)F)C(F)(F)F

>  <experimental_value>
36.5 µM

$$$$
>  <compound>
COc1ccc(C(=O)O)c2c(=O)c3ccccc3[nH]c12

>  <experimental_value>
> 100 µM

$$$$
>  <compound>
O=c1c2cc([N+](=O)[O-])cnc2sn1-c1ccc(Oc2ccccc2)cc1

>  <experimental_value>
> 100 µM

$$$$

Alright, here's another compound for you.
### Prompt Give the measured TGI for O=C1CCC(NC(=O)Cc2ccc(O)cc2)C(=O)N1 (stereo unspecified)
### Response > 2500 µM

====

Test system: CAKI-1 renal
Experiment: NCI tumour cell line growth inhibition, 48 h
measure_name: TGI

For orientation, consider the following solved cases.
>  <molecule>
N=c1oc2cc(O)c(O)cc2cc1C(N)=O

>  <target_system>
CAKI-1 renal

>  <experimental_value>
> 100 µM

$$$$
>  <molecule>
O=C(/C=C/c1c(O)c2ccccc2[nH]c1=O)CC(=O)C(=O)Nc1cccc(O)c1

>  <target_system>
CAKI-1 renal

>  <experimental_value>
> 100 µM

$$$$
>  <molecule>
COc1c(C(=O)O)cccc1-c1cccc(C(=O)NCCN(CCNC(=O)c2cccc(-c3cccc(C(=O)O)c3OC)c2OC)CCNC(=O)c2cccc(-c3cccc(C(=O)O)c3OC)c2OC)c1OC

>  <target_system>
CAKI-1 renal

>  <experimental_value>
> 100 µM

$$$$
>  <molecule>
CCCOc1ccc(/C=C/C2=[N+](CCO)CCO2)cc1

>  <target_system>
CAKI-1 renal

>  <experimental_value>
> 100 µM

$$$$
>  <molecule>
COc1ccc(/C=c2/[nH]c(=O)/c(=C\c3ccc(OCc4ccccc4)cn3)[nH]c2=O)cc1

>  <target_system>
CAKI-1 renal

>  <experimental_value>
> 100 µM

$$$$
>  <molecule>
CC1CC(C)C(=O)C(C(=O)CC2CC(=O)NC2=O)C1 (stereo unspecified)

>  <target_system>
CAKI-1 renal

>  <experimental_value>
> 100 µM

$$$$
>  <molecule>
COc1cc(/C=C2\CCC(C)c3c2nc(N)c(C#N)c3-c2cc(OC)c(OC)c(OC)c2)cc(OC)c1OC (stereo unspecified)

>  <target_system>
CAKI-1 renal

>  <experimental_value>
> 100 µM

$$$$
>  <molecule>
COc1ccc2cc(CNCCCN3CCN(CCCNCc4ccc5cc(OC)ccc5c4)CC3)ccc2c1

>  <target_system>
CAKI-1 renal

>  <experimental_value>
3.2 µM

$$$$
>  <molecule>
CCN(CC)CCN1CCN=c2c3cc(OC)ccc3n3cnc4ccc1c2c43

>  <target_system>
CAKI-1 renal

>  <experimental_value>
2.23 µM

$$$$
>  <molecule>
CN1CCN(CCCOc2ccc3ncnc(Nc4ccc(Oc5cccc(C(F)(F)F)c5)c(Cl)c4)c3c2)CC1

>  <target_system>
CAKI-1 renal

>  <experimental_value>
3.07 µM

$$$$

### Prompt Give the measured TGI for CC1=C(C(=O)OC23CC4CC(CC(C4)C2)C3)C(c2ccccc2OC(F)F)C(C(=O)OC23CC4CC(CC(C4)C2)C3)=C(C)N1 (stereo unspecified)
### Response > 100 µM

### Prompt Give the measured TGI for CC1=C/C(=N\N(C)C)C(C(O)(C(F)(F)F)C(F)(F)F)C(C)(C)C1 (stereo unspecified)
### Response > 100 µM

### Prompt Give the measured TGI for O=c1[nH]cnc2c1nnn2[C@@H]1O[C@H](CO)[C@@H](O)[C@H]1O
### Response > 100 µM

### Prompt Give the measured TGI for N=C(N)C(N=Nc1ccccc1)C(=N)N (stereo unspecified)
### Response > 100 µM

### Prompt Give the measured TGI for Cc1c(N(C(=O)c2cc(-c3cc(Cl)ccc3C(=O)N3Cc4ccccc4C[C@H]3CN3CCOCC3)n(C)c2C)c2ccc(O)cc2)cc(C#N)n1C
### Response > 100 µM

### Prompt Give the measured TGI for Cc1nn(-c2ccccc2)c2nc3c(c(C)nn3-c3ccccc3)c(-c3ccccc3Br)c12
### Response > 100 µM

### Prompt Give the measured TGI for CC1C(c2ccccc2)=CCON1c1ccccc1 (stereo unspecified)
### Response > 100 µM

### Prompt Give the measured TGI for CC[N+](CC)(CC)Cc1cn(S(=O)(=O)c2ccccc2)c2ccccc12
### Response > 100 µM

### Prompt Give the measured TGI for CCC/C(Cl)=N\OC(=O)Nc1ccc(Br)cc1
### Response 5.77 µM

### Prompt Give the measured TGI for O=C(/C=C/c1ccc2c(c1)OCO2)c1ccccc1
### Response 23 µM

### Prompt Give the measured TGI for [N-]=[N+]=Nc1cc(=O)n(-c2ccccc2)c(=O)n1-c1ccccc1
### Response > 100 µM
